test: small-molecule microarray binders of probe aXIP, primary screen, biochemical, NeuroSMM set, 635/667 nm fluorescence (AID 1119); details: higher = more signal, called active from +8 up or from −8 down;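 further: probe is the protein aXip251-270 applied at 1 µg/mL to compound-printed slides; binding of probe to printed compounds measured as 667 nm fluorescence plus signal to noise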
# label = Satisfied if composite Z-score >= 0.2 else Not satisfied

A selection of reference data follows.
>  <compound>
COCCOC(=O)N1C(=O)[C@@]2(c3ccccc31)[C@H](C(=O)N1CCc3cc(OC)c(OC)cc3C1)[C@H]1C(=O)O[C@H](c3ccccc3)[C@H](c3ccccc3)N1[C@@H]2c1ccc(OCCO)cc1

>  <classification>
Not satisfied

$$$$
>  <compound>
CN(C)CCCCCCNC(=O)[C@@H]1C[C@@H]2C(=O)N[C@@H](Cc3ccccc3)C(=O)N2[C@@H]1c1ccc(O)cc1

>  <classification>
Satisfied

$$$$
>  <compound>
C=C(CCCC)/C(=C/C[C@H](OC(C)=O)c1ccccc1OCCO)c1cc(C(=O)OC)ccc1OC

>  <classification>
Not satisfied

$$$$
>  <compound>
C[N+](C)(C)CCCCCCNC(=O)[C@@H]1C[C@@H]2C(=O)N[C@@H](Cc3ccccc3)C(=O)N2[C@@H]1c1cccc(OCCO)c1

>  <classification>
Satisfied

$$$$
>  <compound>
COc1ccc([Si](C)(C)[C@@H]2[C@@H](CCO)O[C@]3(C(=O)N(Cc4ccc(N(C=O)c5ccccc5)cc4)c4ccccc43)[C@H]2C)cc1

>  <classification>
Not satisfied

$$$$

Given the entry [N-]=[N+]=NCc1ccccc1C[C@]1(C(N)=O)COC(c2ccc(OCCCO)cc2)=N1 , answer whether its composite Z-score meets or surpasses 0.2.
Not satisfied

Is the recorded value of composite Z-score equal to or greater than 0.2 for this compound? COC(=O)[C@@]1(Cc2ccccc2)[C@H]2c3cc(C(=O)N4CCCC4)n(Cc4ccc(S(C)(=O)=O)cc4)c3C[C@H]2CN1C(=O)c1ccccc1
Satisfied

Does the reported composite Z-score for C=CCNC(=O)[C@H]1[C@@H]2C(=O)O[C@@H](c3ccccc3)[C@@H](c3ccccc3)N2[C@@H](c2ccccc2OCCO)[C@]12C(=O)Nc1ccc(C#CCC(C(=O)OC)C(=O)OC)cc12 fall at or above the 0.2 mark?
Satisfied

Hello, I need to know if CCOC(=O)C[C@H]1[C@H](OC(=O)c2ccc(C(=O)c3ccccc3)cc2)[C@@H](NC(=O)c2ccccc2)c2cc(OCCCO)ccc2N1C(=O)c1ccc2ccccc2n1 has measured composite Z-score not below 0.2. Thanks!
Not satisfied

Form field: composite Z-score at least 0.2? Entry: COCCCNC(=O)[C@]1(CCC(=O)OC(C)(C)C)N=C(c2ccc(OCCCO)cc2)O[C@@H]1c1ccccc1CN=[N+]=[N-]
Not satisfied

Does the compound CN(C)CCCCCCNC(=O)[C@H]1C[C@H]2C(=O)N3CCC[C@H]3C(=O)N2[C@H]1c1ccc(O)cc1 have recorded composite Z-score that is 0.2 or more?
Satisfied

# check: composite Z-score of Cc1ccccc1C(O)C1C=CC2C(=O)N(c3ccccc3)C(=O)C2N1Nc1ccc(C(C)C)cc1 (stereo not drawn) is greater than or equal to 0.2
Satisfied

----------
target: Pro-neuregulin-1, membrane-bound isoform (Homo sapiens) (UniProt Q02297); assay: NRG1 binders on small-molecule microarrays, primary screen, psychiatric disease protein project, biochemical, small-molecule microarray, fluorescence 635/667 (AID 1075); settings: NRG1 binding, 635 nm fluorescence, higher = more signal;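 further: score combines 667 nm spot fluorescence with signal to noise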
Sequence (Q02297 whole entry, looked up, canonical isoform): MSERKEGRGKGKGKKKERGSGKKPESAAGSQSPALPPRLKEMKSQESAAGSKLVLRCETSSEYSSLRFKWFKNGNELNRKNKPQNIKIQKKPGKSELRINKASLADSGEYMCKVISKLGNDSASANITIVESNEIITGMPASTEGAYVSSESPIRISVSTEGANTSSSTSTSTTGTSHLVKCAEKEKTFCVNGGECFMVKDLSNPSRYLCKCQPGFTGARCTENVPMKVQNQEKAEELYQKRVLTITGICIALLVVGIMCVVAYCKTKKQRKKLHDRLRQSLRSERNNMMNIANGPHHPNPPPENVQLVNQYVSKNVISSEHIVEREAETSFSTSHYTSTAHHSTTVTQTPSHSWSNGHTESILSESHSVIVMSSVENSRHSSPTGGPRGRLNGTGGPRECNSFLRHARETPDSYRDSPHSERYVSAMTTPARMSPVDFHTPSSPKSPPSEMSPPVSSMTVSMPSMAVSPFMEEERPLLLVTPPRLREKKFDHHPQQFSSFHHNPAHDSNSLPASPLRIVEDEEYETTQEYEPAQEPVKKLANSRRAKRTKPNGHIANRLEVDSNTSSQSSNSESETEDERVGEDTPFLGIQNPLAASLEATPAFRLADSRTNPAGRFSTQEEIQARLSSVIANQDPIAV
Quick reference: composite z-score of the listed items.
I only need the number, thanks.

What does the record list as composite z-score for C=CCN1C(=O)[C@@]2(CC=C)N=C(c3ccc(OCCCO)cc3)O[C@H]2c2ccccc21 ?
1.3

Can you share its composite z-score? I mean this molecule: C#C[C@H](O[Si](C#Cc1ccc(Oc2ccccc2)cc1)(C(C)C)C(C)C)c1ccccc1
0.206

Any idea what composite z-score was measured for CN1C=C(C(=O)OCCS(C)(=O)=O)C(C(=O)OCCS(C)(=O)=O)=CC(c2ccc(CO)cc2)=CC1C1CC1 (centres undefined) ?
1

Would you mind telling me what composite z-score value was observed for COC(=O)[C@@]1(Cc2ccc(F)cc2)[C@H]2c3cc(C(=O)N(C)C)n(Cc4ccc(Cl)c(C(F)(F)F)c4)c3C[C@H]2CN1C(=O)c1ccccc1 ?
1.83
